Where do these numbers come from? They come from patent US20240010750A1.

Target: T1, human alpha2-Antiplasmin (human, UniProt P08697 40-491)
T1 sequence: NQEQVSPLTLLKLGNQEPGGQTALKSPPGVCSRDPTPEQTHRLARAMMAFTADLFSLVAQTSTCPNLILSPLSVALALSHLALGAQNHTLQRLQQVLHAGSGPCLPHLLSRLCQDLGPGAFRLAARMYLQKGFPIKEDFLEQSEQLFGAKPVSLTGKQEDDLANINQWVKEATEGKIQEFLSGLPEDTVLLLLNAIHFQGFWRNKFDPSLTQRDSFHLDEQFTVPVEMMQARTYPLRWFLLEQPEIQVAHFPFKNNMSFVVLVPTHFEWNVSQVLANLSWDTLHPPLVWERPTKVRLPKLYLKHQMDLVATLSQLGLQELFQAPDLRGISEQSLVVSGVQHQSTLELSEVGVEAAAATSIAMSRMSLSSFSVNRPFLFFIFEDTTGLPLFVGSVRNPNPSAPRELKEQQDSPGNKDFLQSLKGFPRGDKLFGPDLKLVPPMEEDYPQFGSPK
Assay: cell-based or functional assay
metric: function blocking activity [IC50 M], 2nd exp. (nM)

binder	experimental_value
TPP-17041 hIgG1 (antibody, V domains shown, Germline variant of TPP-14308) VH: EVQLLESGGGLVQPGGSLRLSCAASGFTFSDYAMSWVRQAPGKGLEWVSAIGTGGGTYYADSVKGRFTISRDNSKNTLYLQMNSLRAEDTAVYYCAREGYDSSGYYHLDYWGQGTLVTVSS VL: QSVLTQPPSASGTPGQRVTISCTGSSSNIGATYDVHWYQQLPGTAPKLLIYSNNQRPSGVPDRFSGSKSGTSASLAISGLRSEDEADYYCAAWDWSLSGWVFGGGTKLTVLG	0.69
TPP-17051 hIgG1 (antibody, V domains shown, Germline variant of TPP-14308) VH: EVQLLESGGGLVQPGGSLRLSCAASGFTFDSYAMSWVRQAPGKGLEWVSAIGTGGSTYYADSVKGRFTISRDNSKNTLYLQMNSLRAEDTAVYYCAREGYDSSGYYHLDYWGQGTLVTVSS VL: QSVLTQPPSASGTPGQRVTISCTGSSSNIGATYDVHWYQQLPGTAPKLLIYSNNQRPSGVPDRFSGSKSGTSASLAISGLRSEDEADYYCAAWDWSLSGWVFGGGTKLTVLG	0.44
TPP-17048 hIgG1 (antibody, V domains shown, Germline variant of TPP-14308) VH: EVQLLESGGGLVQPGGSLRLSCAASGFTFSDYAMSWVRQAPGKGLEWVSAIGTGGSTYYADSVKGRFTISRDNSKNTLYLQMNSLRAEDTAVYYCAREGYDSSGYYHLDYWGQGTLVTVSS VL: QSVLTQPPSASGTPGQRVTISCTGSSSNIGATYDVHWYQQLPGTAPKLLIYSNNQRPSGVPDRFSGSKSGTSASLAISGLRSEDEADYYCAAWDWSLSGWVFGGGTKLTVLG	0.39
TPP-17045 hIgG1 (antibody, V domains shown, Germline variant of TPP-14308) VH: EVQLLESGGGLVQPGGSLRLSCAASGFTFDDYAMSWVRQAPGKGLEWVSAIGTGGGTYYADSVKGRFTISRDNSKNTLYLQMNSLRAEDTAVYYCAKEGYDSSGYYHLDYWGQGTLVTVSS VL: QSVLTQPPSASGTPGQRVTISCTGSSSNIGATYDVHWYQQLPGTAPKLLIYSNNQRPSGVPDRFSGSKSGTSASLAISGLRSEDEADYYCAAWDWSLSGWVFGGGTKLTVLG	0.5
TPP-17053 hIgG1 (antibody, V domains shown, Germline variant of TPP-14308) VH: EVQLLESGGGLVQPGGSLRLSCAASGFTFDDYAMSWVRQAPGKGLEWVSAIGSGGSTYYADSVKGRFTISRDNSKNTLYLQMNSLRAEDTAVYYCAREGYDSSGYYHLDYWGQGTLVTVSS VL: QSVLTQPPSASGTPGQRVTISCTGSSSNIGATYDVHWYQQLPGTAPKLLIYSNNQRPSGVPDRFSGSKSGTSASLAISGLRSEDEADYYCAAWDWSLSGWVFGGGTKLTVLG	0.65
